Molecular target: T1, rhesus monkey CD22-ECD-His protein (rhesus monkey, UniProt H9G1X2 18-686)
T1 construct: extracellular domain; also called monkey CD22 protein
T1 sequence: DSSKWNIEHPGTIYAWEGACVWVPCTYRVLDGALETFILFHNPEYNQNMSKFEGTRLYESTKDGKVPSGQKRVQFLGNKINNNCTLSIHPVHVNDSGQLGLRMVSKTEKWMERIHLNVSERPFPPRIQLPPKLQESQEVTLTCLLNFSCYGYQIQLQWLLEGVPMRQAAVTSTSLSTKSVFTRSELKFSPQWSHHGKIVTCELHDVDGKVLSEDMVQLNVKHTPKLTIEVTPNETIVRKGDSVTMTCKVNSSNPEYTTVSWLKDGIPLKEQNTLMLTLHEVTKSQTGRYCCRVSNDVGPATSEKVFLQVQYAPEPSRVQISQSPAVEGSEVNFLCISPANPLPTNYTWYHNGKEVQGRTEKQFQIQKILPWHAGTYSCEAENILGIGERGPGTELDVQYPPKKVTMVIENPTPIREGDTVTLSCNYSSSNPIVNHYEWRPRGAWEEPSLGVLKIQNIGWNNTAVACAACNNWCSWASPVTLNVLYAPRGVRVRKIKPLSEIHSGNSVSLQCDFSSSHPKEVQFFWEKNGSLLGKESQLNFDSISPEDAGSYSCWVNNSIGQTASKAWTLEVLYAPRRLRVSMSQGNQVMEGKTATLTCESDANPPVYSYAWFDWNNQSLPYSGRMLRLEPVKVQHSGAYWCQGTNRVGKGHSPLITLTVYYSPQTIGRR
Assay: SPR (Biacore), antibody captured on Protein A chip, rhesus CD22 in solution
ASSAY_READOUT: pKd
Please express pKd as -log10 of the molar concentration.

| BINDER | TEST_RESULT |
| --- | --- |
| F2.173.9 (antibody, human IgG1, lambda, V domains shown, Chimeric IgG1 lambda) VH: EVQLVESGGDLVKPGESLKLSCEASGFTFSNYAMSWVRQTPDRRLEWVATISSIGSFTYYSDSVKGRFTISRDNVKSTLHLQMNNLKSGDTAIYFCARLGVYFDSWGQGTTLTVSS VL: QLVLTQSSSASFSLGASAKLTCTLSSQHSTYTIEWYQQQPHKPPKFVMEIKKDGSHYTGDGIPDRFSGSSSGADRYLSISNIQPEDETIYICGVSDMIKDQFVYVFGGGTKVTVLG | 7.33 |

For F1.17.1 (antibody, human IgG1, kappa, V domains shown, Chimeric IgG1 kappa) VH: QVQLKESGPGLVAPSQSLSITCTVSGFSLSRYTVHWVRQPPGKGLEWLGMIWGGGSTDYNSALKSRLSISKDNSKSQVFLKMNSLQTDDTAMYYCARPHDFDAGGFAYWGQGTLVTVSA VL: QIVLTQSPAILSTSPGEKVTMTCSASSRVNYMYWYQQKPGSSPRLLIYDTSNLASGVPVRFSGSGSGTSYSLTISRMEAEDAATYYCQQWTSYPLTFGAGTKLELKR the binder record lists pKd as 8.44

Recorded result, F1.192.1 (antibody, human IgG1, kappa, V domains shown, Chimeric IgG1 kappa) VH: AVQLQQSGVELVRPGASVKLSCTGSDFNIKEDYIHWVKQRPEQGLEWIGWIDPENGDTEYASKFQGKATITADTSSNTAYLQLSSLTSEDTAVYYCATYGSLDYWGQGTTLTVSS VL: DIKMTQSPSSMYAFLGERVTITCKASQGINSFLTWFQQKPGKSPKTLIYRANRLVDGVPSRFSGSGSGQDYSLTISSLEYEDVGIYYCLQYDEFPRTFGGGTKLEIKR , pKd: 7.64
